molecular target: Mannose-6-phosphate isomerase (Homo sapiens) (UniProt P34949); assay: inhibitors of human PMI, primary screen, biochemical, fluorescence intensity, coupled assay (AID 1209); conditions: purified PMI enzyme, at 20 µM;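 further: plate controls were DMSO vehicle for no effect and wells lacking substrate for full effect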
Sequence (P34949 whole entry, looked up): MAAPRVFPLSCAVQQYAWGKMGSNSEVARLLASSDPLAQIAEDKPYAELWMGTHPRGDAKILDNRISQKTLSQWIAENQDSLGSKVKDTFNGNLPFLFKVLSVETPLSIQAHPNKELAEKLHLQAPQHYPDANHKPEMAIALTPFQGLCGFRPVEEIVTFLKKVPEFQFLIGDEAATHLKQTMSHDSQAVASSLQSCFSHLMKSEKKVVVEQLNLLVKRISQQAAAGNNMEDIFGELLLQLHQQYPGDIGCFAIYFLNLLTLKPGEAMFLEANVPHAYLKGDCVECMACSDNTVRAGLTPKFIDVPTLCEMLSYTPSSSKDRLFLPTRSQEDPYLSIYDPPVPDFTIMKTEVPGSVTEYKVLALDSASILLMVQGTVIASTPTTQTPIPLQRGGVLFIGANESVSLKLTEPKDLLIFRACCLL
The campaign covered roughly 190,000 compounds. About 810 (0.43%) were called active. No stated cut-off is given here; in the data, active means inhibition above about 50%; inactive means the rest. The entries come from a sample that favours actives as a whole.
Labels: active, inactive

{"Compound": "CCOC(=O)C1(Cc2ccc(OC)cc2)CCN(C(=O)CCc2cccnc2)CC1", "Answer label": "inactive"}
{"Compound": "C[C@@H]1O[C@@H](OC[C@H]2O[C@@H](Oc3c(-c4ccc(O)c(O)c4)oc4cc(O)cc(O)c4c3=O)[C@H](O)[C@@H](O)[C@@H]2O)[C@H](O)[C@H](O)[C@H]1O", "Answer label": "active"}
{"Compound": "O=c1cc(-c2ccc(O)cc2)oc2cc(O)c(C3OC(CO)C(O)C(O)C3O)c(O)c12 (stereo unspecified)", "Answer label": "inactive"}
{"Compound": "COc1ccc(CNC(=O)C/C(C)=N/NC(=O)Cc2ccc(OC)cc2)cc1", "Answer label": "inactive"}
{"Compound": "O=c1c(O[C@@H]2O[C@H](CO)[C@H](O)[C@H](O)[C@H]2O)c(-c2ccc(O)c(O)c2)oc2cc(O)cc(O)c12", "Answer label": "active"}
{"Compound": "O=C(O)C1OC(Oc2c(-c3ccc(O)c(O)c3)oc3cc(O)cc(O)c3c2=O)C(O)C(O)C1O (stereo unspecified)", "Answer label": "inactive"}
{"Compound": "Cc1cc(-c2ccc(N3C(=O)CCC3=O)c(C)c2)ccc1N1C(=O)CCC1=O", "Answer label": "inactive"}
{"Compound": "COc1cccc(-c2nc(CS(=O)(=O)CC(=O)Nc3cccc(C)c3C)c(C)o2)c1", "Answer label": "inactive"}
{"Compound": "O=C(N/C(=C\\c1cccnc1)C(=O)N1CCOCC1)c1ccco1", "Answer label": "inactive"}
{"Compound": "O=C(CSc1ncnc2ccccc12)c1ccc2c(c1)OCCO2", "Answer label": "inactive"}
{"Compound": "Cc1cc(O)cc(O[C@H]2OC(CO)[C@H](O)[C@@H](O)[C@H]2O)c1 (stereo partly specified)", "Answer label": "inactive"}
{"Compound": "C[C@@H]1O[C@@H](Oc2c(-c3cc(O)c(O)c(O)c3)oc3cc(O)cc(O)c3c2=O)[C@H](O)[C@H](O)[C@H]1O", "Answer label": "active"}
{"Compound": "C/C(CC(=O)N1CCN(C=O)CC1)=N\\NC(=O)c1ccc(Cl)cc1", "Answer label": "inactive"}
{"Compound": "COc1ccc(/C=C2\\CC/C(=C\\c3ccc(OC)c(OC)c3)C2=O)cc1OC", "Answer label": "inactive"}
{"Compound": "COc1ccc(-c2oc3cc(OC)c(O)c(OC)c3c(=O)c2OC)cc1O", "Answer label": "inactive"}
{"Compound": "COc1cc(/C=C2\\CC/C(=C\\c3cc(OC)c(OC)c(OC)c3)C2=O)cc(OC)c1OC", "Answer label": "inactive"}

* * *

target: Mannose-6-phosphate isomerase (Homo sapiens) (UniProt P34949); test: inhibitors of human PMI, primary screen, biochemical, fluorescence intensity, coupled assay (AID 1209); conditions: purified PMI enzyme, at 20 µM, active compounds read high;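 further: plate controls were DMSO vehicle for no effect and wells lacking substrate for full effect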
Out of some 190,000 compounds screened, about 810 (0.43%) were called active. Many of the other results were omitted from the sample, so actives are more common in it than they were.

{"Molecule": "COc1ccc(C2=C(N)c3ccccc3C2=O)cc1", "inhibition / %": 3.9}
{"Molecule": "Cc1ccc(C2=[N+]([O-])C3(CCCCC/C3=N\\NC(N)=O)N(O)C2(C)C)o1 (stereo not given)", "inhibition / %": -4.7}
{"Molecule": "Cc1cccc(Nc2ncnc3c2cnn3C)c1", "inhibition / %": 10.3}
{"Molecule": "O=C(C1=C(c2ccccc2)C(=O)c2ccccc2C1=O)c1ccccc1", "inhibition / %": 48.7}
{"Molecule": "CCOC(=O)C1=C(Cc2ccc(OC)cc2)C(=O)c2ccccc2C1=O", "inhibition / %": 22.9}
